assay: Acute toxicity in C57BL/6J mouse assessed as survival at 30 to 179 mg/kg; type: organism-based; conditions: in vivo, dose 30-179 mg/kg
observation type: survival (%)
Output spec: scalar in %, unitless text.

Reported survival ( O=C(/C=C/C(=O)N1CCN(CC2CCN(c3cccc4c3C(=O)N(C3CCC(=O)NC3=O)C4=O)C2)CC1)Nc1ccc(NC(=O)c2ccc([N+](=O)[O-])o2)cc1 (stereo unspecified) ) = 100

* * *

target: Protein cereblon/Stimulator of interferon genes protein (Homo sapiens, UniProt Q96SW2+Q86WV6); test: PROTAC activity at CRBN/STING in human THP-1 cells assessed as induction of STING degradation at 5 uM measured after 24 hrs by Western blotting analysis relative to control; type: cell-based
Sequence (Q86WV6 whole entry, looked up): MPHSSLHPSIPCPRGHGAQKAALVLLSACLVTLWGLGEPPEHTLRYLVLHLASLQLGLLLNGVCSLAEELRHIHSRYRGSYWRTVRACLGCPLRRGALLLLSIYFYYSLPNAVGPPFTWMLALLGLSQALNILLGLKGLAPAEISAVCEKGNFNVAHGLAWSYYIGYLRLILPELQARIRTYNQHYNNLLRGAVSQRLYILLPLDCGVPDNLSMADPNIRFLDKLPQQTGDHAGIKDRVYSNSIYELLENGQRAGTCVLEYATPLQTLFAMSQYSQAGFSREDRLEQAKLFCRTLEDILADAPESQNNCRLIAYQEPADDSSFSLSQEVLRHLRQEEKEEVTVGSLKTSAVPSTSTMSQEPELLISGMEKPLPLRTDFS
Sequence (Q96SW2 whole entry, looked up): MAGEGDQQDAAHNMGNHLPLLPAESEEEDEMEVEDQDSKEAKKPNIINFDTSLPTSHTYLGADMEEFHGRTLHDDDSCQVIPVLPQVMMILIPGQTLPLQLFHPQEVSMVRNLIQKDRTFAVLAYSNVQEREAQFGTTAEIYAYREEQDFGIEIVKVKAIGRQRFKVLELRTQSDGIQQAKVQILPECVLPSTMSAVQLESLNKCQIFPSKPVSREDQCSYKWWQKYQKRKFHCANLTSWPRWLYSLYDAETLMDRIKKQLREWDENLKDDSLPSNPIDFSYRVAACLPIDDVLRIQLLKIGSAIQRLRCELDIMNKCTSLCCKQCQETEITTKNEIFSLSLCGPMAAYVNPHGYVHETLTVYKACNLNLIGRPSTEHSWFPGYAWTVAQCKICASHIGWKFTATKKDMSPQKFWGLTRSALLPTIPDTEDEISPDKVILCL
Activity calls are given as the source filed them. The calls are words filed in the database; no cut-off is given here.
observation type: Activity

Worked examples, 5 compounds total:
The compound listed as O=C1CCC(N2C(=O)c3cccc(N4CCN(CC5CN(C(=O)CCCC(=O)Nc6ccc(NC(=O)c7ccc([N+](=O)[O-])o7)cc6)C5)CC4)c3C2=O)C(=O)N1 (stereo unspecified) shows Activity equal to inactive

Recorded Activity (compound O=C(/C=C/C(=O)N1CCC(N2CCN(c3cccc4c3C(=O)N(C3CCC(=O)NC3=O)C4=O)CC2)CC1)Nc1ccc(NC(=O)c2ccc([N+](=O)[O-])o2)cc1 (stereo unspecified) ): inactive

So for O=C(/C=C/C(=O)N1CCC(CN2CCN(c3cccc4c3C(=O)N(C3CCC(=O)NC3=O)C4=O)CC2)CC1)Nc1ccc(NC(=O)c2ccc([N+](=O)[O-])o2)cc1 (stereo unspecified) , the logged Activity turned out to be 71.1%

Value of Activity reported for the compound O=C(/C=C/C(=O)Nc1ccc(NC(=O)c2ccc([N+](=O)[O-])o2)cc1)NCCCCCCNc1cccc2c1C(=O)N(C1CCC(=O)NC1=O)C2=O (stereo unspecified) is 59.2%

What the record says about O=C(/C=C/C(=O)N1CCN(CC2CCCN2c2cccc3c2C(=O)N(C2CCC(=O)NC2=O)C3=O)CC1)Nc1ccc(NC(=O)c2ccc([N+](=O)[O-])o2)cc1 (stereo unspecified) : Activity is 77.7%

Kindly review the next compound as well.
Sure, the documented Activity for O=C1CCC(N2C(=O)c3cccc(N4CCN(CC5CCN(C(=O)COCC(=O)Nc6ccc(NC(=O)c7ccc([N+](=O)[O-])o7)cc6)CC5)CC4)c3C2=O)C(=O)N1 (stereo unspecified) is 32.6%

* * *

experiment: Metabolic stability in human liver microsomes assessed as intrinsic clearance per gram of protein; assay type: ADME, Microsome
observation type: CLint (mL/min/g)
Note: unit mL/min/g is implicit; provide only the numeric part.

Record O=C(/C=C/C(=O)N1CCN(CC2CCN(c3cccc4c3C(=O)N(C3CCC(=O)NC3=O)C4=O)C2)CC1)Nc1ccc(NC(=O)c2ccc([N+](=O)[O-])o2)cc1 (configuration not stated) . Reported CLint: 104

The recorded CLint for O=C(/C=C/C(=O)Nc1ccc(NC(=O)c2ccc([N+](=O)[O-])o2)cc1)NCCCCCCNc1cccc2c1C(=O)N(C1CCC(=O)NC1=O)C2=O (configuration not stated) is 1490

* * *

assay: MRT (0 to t) in male Sprague-Dawley rat at 2 mg/kg, iv measured after 12 hrs by LC-MS/MS analysis; assay type: ADME, organism-based; details: in vivo
observation type: MRT last at 12 h

The molecule listed as O=C(/C=C/C(=O)N1CCN(CC2CCN(c3cccc4c3C(=O)N(C3CCC(=O)NC3=O)C4=O)C2)CC1)Nc1ccc(NC(=O)c2ccc([N+](=O)[O-])o2)cc1 (stereo unspecified) shows MRT last at 12 h equal to 12 min

* * *

test: Apparent volume of distribution in male Sprague-Dawley rat at 2 mg/kg, iv measured after 12 hrs by LC-MS/MS analysis; type: ADME, organism-based; conditions: in vivo, read-out: Vz
observation type: Vd (L/kg)
Write down the numeric answer in L/kg and omit the unit.

Form: compound = O=C(/C=C/C(=O)N1CCN(CC2CCN(c3cccc4c3C(=O)N(C3CCC(=O)NC3=O)C4=O)C2)CC1)Nc1ccc(NC(=O)c2ccc([N+](=O)[O-])o2)cc1 (stereo unspecified) ; Vd = 3.9

* * *

assay: Metabolic stability in human liver microsomes assessed as half life; format: ADME, Microsome
For each of the compounds below, state its half-life.

// field: half-life; key: O=C(/C=C/C(=O)N1CCN(CC2CCN(c3cccc4c3C(=O)N(C3CCC(=O)NC3=O)C4=O)C2)CC1)Nc1ccc(NC(=O)c2ccc([N+](=O)[O-])o2)cc1 (configuration not stated) ; value = 20.1 min

Record summary for O=C(/C=C/C(=O)Nc1ccc(NC(=O)c2ccc([N+](=O)[O-])o2)cc1)NCCCCCCNc1cccc2c1C(=O)N(C1CCC(=O)NC1=O)C2=O (configuration not stated) : reported half-life = 1.41 min

* * *

molecular target: Protein cereblon/Stimulator of interferon genes protein (Homo sapiens, UniProt Q96SW2+Q86WV6); test: PROTAC activity at CRBN/STING in human THP-1 cells assessed as induction of STING degradation at 5 uM measured after 24 hrs by Western blotting analysis relative to control; type: cell-based
Can you tell me Activity for the items I'm about to list?

Notebook: O=C1CCC(N2C(=O)c3cccc(N4CCC(CN5CCN(C(=O)CCC(=O)Nc6ccc(NC(=O)c7ccc([N+](=O)[O-])o7)cc6)CC5)C4)c3C2=O)C(=O)N1 (stereo not drawn) , Activity read as 44.7%

For this compound ( O=C(/C=C/C(=O)N1CCN(CC2CCN(c3cccc4c3C(=O)N(C3CCC(=O)NC3=O)C4=O)C2)CC1)Nc1ccc(NC(=O)c2ccc([N+](=O)[O-])o2)cc1 (stereo not drawn) ), measured Activity is 90.6%

* * *

target: Protein cereblon/Stimulator of interferon genes protein (Homo sapiens, UniProt Q96SW2+Q86WV6); assay: PROTAC activity at CRBN/STING in human THP-1 cells assessed as induction of STING degradation at 5 uM measured after 24 hrs by Western blotting analysis relative to control; assay type: cell-based
Calls of active or inactive are those of the source. No cut-off for these calls is given here.
observation type: Activity

Field: example entries. Status: answers known.
The molecule identified as O=C1CCC(N2C(=O)c3cccc(N4CCC(CN5CCN(C(=O)COCC(=O)Nc6ccc(NC(=O)c7ccc([N+](=O)[O-])o7)cc6)CC5)C4)c3C2=O)C(=O)N1 (stereo not drawn) registered its Activity at inactive

Entry O=C(/C=C/C(=O)N1CC(N2CCN(c3cccc4c3C(=O)N(C3CCC(=O)NC3=O)C4=O)CC2)C1)Nc1ccc(NC(=O)c2ccc([N+](=O)[O-])o2)cc1 (stereo not drawn) — recorded Activity = 30.3%

Item: O=C(/C=C/C(=O)N1CCN(CC2CCCN2c2ccc3c(c2)C(=O)N(C2CCC(=O)NC2=O)C3=O)CC1)Nc1ccc(NC(=O)c2ccc([N+](=O)[O-])o2)cc1 (stereo not drawn) | Activity: 72.3%

# Activity (molecule: O=C(/C=C/C(=O)N1CC(CN2CCN(c3ccc4c(c3)C(=O)N(C3CCC(=O)NC3=O)C4=O)CC2)C1)Nc1ccc(NC(=O)c2ccc([N+](=O)[O-])o2)cc1 (stereo not drawn) ) is inactive

Per the record, O=C1CCC(N2C(=O)c3cccc(N4CCN(CC5CN(C(=O)COCC(=O)Nc6ccc(NC(=O)c7ccc([N+](=O)[O-])o7)cc6)C5)CC4)c3C2=O)C(=O)N1 (stereo not drawn) has Activity of inactive

Consider O=C1CCC(N2C(=O)c3cccc(N4CCC(CN5CCN(C(=O)CCCC(=O)Nc6ccc(NC(=O)c7ccc([N+](=O)[O-])o7)cc6)CC5)C4)c3C2=O)C(=O)N1 (stereo not drawn) . Its measured Activity is 36.3%

New cases:
Input O=C1CCC(N2C(=O)c3cccc(N4CCN(CC5CCN(C(=O)CCC(=O)Nc6ccc(NC(=O)c7ccc([N+](=O)[O-])o7)cc6)CC5)CC4)c3C2=O)C(=O)N1 (stereo not drawn) . Output Activity: inactive

Activity measured on O=C(/C=C/C(=O)N1CCN(c2cccc3c2C(=O)N(C2CCC(=O)NC2=O)C3=O)CC1)Nc1ccc(NC(=O)c2ccc([N+](=O)[O-])o2)cc1 (stereo not drawn) = 20.3%

* * *

target: Protein cereblon/Stimulator of interferon genes protein (Homo sapiens, UniProt Q96SW2+Q86WV6); assay: PROTAC activity at CRBN/STING in human THP-1 cells assessed as induction of STING degradation at 5 uM measured after 24 hrs by Western blotting analysis relative to control; type: cell-based
Active and inactive are the calls of the source. The rule behind the calls is not given here.
observation type: Activity

The compound listed as O=C(/C=C/C(=O)N1CC(CN2CCN(c3cccc4c3C(=O)N(C3CCC(=O)NC3=O)C4=O)CC2)C1)Nc1ccc(NC(=O)c2ccc([N+](=O)[O-])o2)cc1 (configuration not stated) shows Activity equal to 43.6%

Entry O=C(/C=C/C(=O)N1CCC(CN2CCN(c3ccc4c(c3)C(=O)N(C3CCC(=O)NC3=O)C4=O)CC2)CC1)Nc1ccc(NC(=O)c2ccc([N+](=O)[O-])o2)cc1 (configuration not stated) , Activity reported as 52.3%

// Activity value for O=C(/C=C/C(=O)N1CCN(C2CCN(c3cccc4c3C(=O)N(C3CCC(=O)NC3=O)C4=O)CC2)CC1)Nc1ccc(NC(=O)c2ccc([N+](=O)[O-])o2)cc1 (configuration not stated) : 25.3%

Entry O=C1CCC(N2C(=O)c3cccc(N4CCC(N5CCN(C(=O)CCC(=O)Nc6ccc(NC(=O)c7ccc([N+](=O)[O-])o7)cc6)CC5)C4)c3C2=O)C(=O)N1 (configuration not stated) — recorded Activity = inactive

The compound listed as O=C(/C=C/C(=O)N1CCN(CC2CCN(c3cccc4c3C(=O)N(C3CCC(=O)NC3=O)C4=O)CC2)CC1)Nc1ccc(NC(=O)c2ccc([N+](=O)[O-])o2)cc1 (configuration not stated) shows Activity equal to 43.6%

Next:
Summary for this compound, O=C(/C=C/C(=O)N1CCN(C2CCN(c3cccc4c3C(=O)N(C3CCC(=O)NC3=O)C4=O)C2)CC1)Nc1ccc(NC(=O)c2ccc([N+](=O)[O-])o2)cc1 (configuration not stated) : Activity is 58%

Documented Activity of O=C1CCC(N2C(=O)c3cccc(N4CCC(N5CCN(C(=O)COCC(=O)Nc6ccc(NC(=O)c7ccc([N+](=O)[O-])o7)cc6)CC5)C4)c3C2=O)C(=O)N1 (configuration not stated) : inactive

In plain terms, O=C(/C=C/C(=O)N1CCN(CC2CCN(c3ccc4c(c3)C(=O)N(C3CCC(=O)NC3=O)C4=O)C2)CC1)Nc1ccc(NC(=O)c2ccc([N+](=O)[O-])o2)cc1 (configuration not stated) has a documented Activity of 73.6%

Activity reading for O=C(/C=C/C(=O)N1CCN(CC2CCN(c3ccc4c(c3)C(=O)N(C3CCC(=O)NC3=O)C4=O)CC2)CC1)Nc1ccc(NC(=O)c2ccc([N+](=O)[O-])o2)cc1 (configuration not stated) : 63.6%

Field Activity (entry O=C1CCC(N2C(=O)c3cccc(N4CCN(CC5CN(C(=O)CCC(=O)Nc6ccc(NC(=O)c7ccc([N+](=O)[O-])o7)cc6)C5)CC4)c3C2=O)C(=O)N1 (configuration not stated) ) reads 40.7%

Short answer for O=C1CCC(N2C(=O)c3cccc(N4CCC(N5CCN(C(=O)CCCC(=O)Nc6ccc(NC(=O)c7ccc([N+](=O)[O-])o7)cc6)CC5)C4)c3C2=O)C(=O)N1 (configuration not stated) : Activity was 40.5%

Measured Activity, O=C(/C=C/C(=O)N1CCN(C2CCN(c3ccc4c(c3)C(=O)N(C3CCC(=O)NC3=O)C4=O)C2)CC1)Nc1ccc(NC(=O)c2ccc([N+](=O)[O-])o2)cc1 (configuration not stated) : inactive
